Listing: logP of selected compounds
EXPERIMENTAL PROTOCOL: lipophilicity (log P) of the quencher
Assay type: physicochemical
CONDITIONS USED: organic (oil) phase / aqueous phase partition
ASSAY METRIC: logP

> print(dat)
                                   compound  quantitative.readout
1  CCCCCCCCN(CCCCCCCC)C(=O)CCCCCCC [Quencher-B]                  10.2
2  CCCCCCCCN(CCCCCCCC)CCCCCCCC [Quencher-A]                  10.8
3      CCCCCCCCCCCC(=O)N(CC)CC [Quencher-H]                   5.6
4    CCCCCCCCN(CCCCCCCC)C(C)=O [Quencher-I]                  6.69
